# System: Pediococcus pentosaceus
# Assay remarks: agar dilution MIC, lactic acid bacteria
# Assay type: cell-based
# Condition info: Pediococcus pentosaceus (mean of 2), brain-heart infusion agar
MIC by entry:
Observation type: MIC (µg/mL)

Compound	Result units	Reported result
CNC(CC(C)C)C(=O)NC1C(=O)NC(CC(N)=O)C(=O)NC2C(=O)NC3C(=O)NC(C(=O)NC(C(=O)O)c4cc(O)cc(O)c4-c4cc3ccc4O)C(OC3CC(C)(N)C(O)C(C)O3)c3ccc(c(Cl)c3)Oc3cc2cc(c3OC2OC(CO)C(O)C(O)C2OC2CC(C)(NCc3ccc4c(c3)Cc3ccccc3-4)C(O)C(C)O2)Oc2ccc(cc2Cl)C1O (stereo not drawn) [Compound 32]	µg/mL	16
CNC(CC(C)C)C(=O)NC1C(=O)NC(CC(N)=O)C(=O)NC2C(=O)NC3C(=O)NC(C(=O)NC(C(=O)O)c4cc(O)cc(O)c4-c4cc3ccc4O)C(OC3CC(C)(N)C(O)C(C)O3)c3ccc(c(Cl)c3)Oc3cc2cc(c3OC2OC(CO)C(O)C(O)C2OC2CC(C)(NCc3ccc(OCc4ccccc4)cc3)C(O)C(C)O2)Oc2ccc(cc2Cl)C1O (stereo not drawn) [Compound 5]	µg/mL	8.0
CNC(CC(C)C)C(=O)NC1C(=O)NC(CC(N)=O)C(=O)NC2C(=O)NC3C(=O)NC(C(=O)NC(C(=O)O)c4cc(O)cc(O)c4-c4cc3ccc4O)C(OC3CC(C)(N)C(O)C(C)O3)c3ccc(c(Cl)c3)Oc3cc2cc(c3OC2OC(CO)C(O)C(O)C2OC2CC(C)(NCc3ccc(-c4ccccc4)cc3)C(O)C(C)O2)Oc2ccc(cc2Cl)C1O (stereo not drawn) [Compound 2, p-phenylbenzyl·A82846B]	µg/mL	11

* * *

# System: vancomycin-susceptible enterococci
# Assay remarks: broth micro-dilution, mean geometric MIC
# Type: cell-based, Enterococcus faecium and Enterococcus faecalis
# Condition info: enterococci, 24-hour incubation
mean geometric MIC, Vancomycin Sensitive Strains by entry:
Observation type: mean geometric MIC, Vancomycin Sensitive Strains (µg/mL)

Compound	Result units	Reported result
CNC(CC(C)C)C(=O)NC1C(=O)NC(CC(N)=O)C(=O)NC2C(=O)NC3C(=O)NC(C(=O)NC(C(=O)O)c4cc(O)cc(O)c4-c4cc3ccc4O)C(OC3CC(C)(NCc4ccc5c(c4)Cc4ccccc4-5)C(O)C(C)O3)c3ccc(c(Cl)c3)Oc3cc2cc(c3OC2OC(CO)C(O)C(O)C2OC2CC(C)(NCc3ccc4c(c3)Cc3ccccc3-4)C(O)C(C)O2)Oc2ccc(cc2Cl)C1O (stereo not drawn)	µg/mL	0.11
CC(C)CC(C(=O)NC1C(=O)NC(CC(N)=O)C(=O)NC2C(=O)NC3C(=O)NC(C(=O)NC(C(=O)O)c4cc(O)cc(O)c4-c4cc3ccc4O)C(OC3CC(C)(N)C(O)C(C)O3)c3ccc(c(Cl)c3)Oc3cc2cc(c3OC2OC(CO)C(O)C(O)C2OC2CC(C)(NCc3ccncc3)C(O)C(C)O2)Oc2ccc(cc2Cl)C1O)N(C)Cc1ccncc1 (stereo not drawn)	µg/mL	9.2
CNC(CC(C)C)C(=O)NC1C(=O)NC(CC(N)=O)C(=O)NC2C(=O)NC3C(=O)NC(C(=O)NC(C(=O)O)c4cc(O)cc(O)c4-c4cc3ccc4O)C(OC3CC(C)(N)C(O)C(C)O3)c3ccc(c(Cl)c3)Oc3cc2cc(c3OC2OC(CO)C(O)C(O)C2OC2CC(C)(NCc3ccc(Oc4cccc(Cl)c4)c([N+](=O)[O-])c3)C(O)C(C)O2)Oc2ccc(cc2Cl)C1O (stereo not drawn)	µg/mL	0.047

* * *

MIC by entry:
# Tested on: Staphylococcus aureus 447
# Assay remarks: broth micro-dilution MIC
# Type: cell-based
Observation type: MIC (µg/mL)

Molecule	Result units	Value relation sign	Reported result
CNC(CC(C)C)C(=O)NC1C(=O)NC(CC(N)=O)C(=O)NC2C(=O)NC3C(=O)NC(C(=O)NC(C(=O)O)c4cc(O)cc(O)c4-c4cc3ccc4O)C(OC3CC(C)(N)C(O)C(C)O3)c3ccc(c(Cl)c3)Oc3cc2cc(c3OC2OC(CO)C(O)C(O)C2OC2CC(C)(NCc3ccc(OCc4ccccc4)c(OC)c3)C(O)C(C)O2)Oc2ccc(cc2Cl)C1O (centres unmarked)	µg/mL	≤	0.06
CNC(CC(C)C)C(=O)NC1C(=O)NC(CC(N)=O)C(=O)NC2C(=O)NC3C(=O)NC(C(=O)NC(C(=O)O)c4cc(O)cc(O)c4-c4cc3ccc4O)C(OC3CC(C)(N)C(O)C(C)O3)c3ccc(c(Cl)c3)Oc3cc2cc(c3OC2OC(CO)C(O)C(O)C2OC2CC(C)(NCc3cc4ccccc4s3)C(O)C(C)O2)Oc2ccc(cc2Cl)C1O (centres unmarked)	µg/mL	=	1

* * *

# System: Staphylococcus aureus 447
# Assay remarks: broth micro-dilution MIC
# Format: cell-based
Label met when MIC is strictly below 2 µg/mL; at or above that, label not met.

Molecule	Target or system	Class assignment
CNC(CC(C)C)C(=O)NC1C(=O)NC(CC(N)=O)C(=O)NC2C(=O)NC3C(=O)NC(C(=O)NC(C(=O)O)c4cc(O)cc(O)c4-c4cc3ccc4O)C(OC3CC(C)(N)C(O)C(C)O3)c3ccc(c(Cl)c3)Oc3cc2cc(c3OC2OC(CO)C(O)C(O)C2OC2CC(C)(NCc3c4ccccc4c(C)c4ccccc34)C(O)C(C)O2)Oc2ccc(cc2Cl)C1O (stereo not drawn) [Compound 17]	Staphylococcus aureus 447	not met
CNC(CC(C)C)C(=O)NC1C(=O)NC(CC(N)=O)C(=O)NC2C(=O)NC3C(=O)NC(C(=O)NC(C(=O)O)c4cc(O)cc(O)c4-c4cc3ccc4O)C(OC3CC(C)(N)C(O)C(C)O3)c3ccc(c(Cl)c3)Oc3cc2cc(c3OC2OC(CO)C(O)C(O)C2OC2CC(C)(NCCCCCCCCOc3ccccc3)C(O)C(C)O2)Oc2ccc(cc2Cl)C1O (stereo not drawn) [Compound 195]	Staphylococcus aureus 447	met
CNC(CC(C)C)C(=O)NC1C(=O)NC(CC(N)=O)C(=O)NC2C(=O)NC3C(=O)NC(C(=O)NC(C(=O)O)c4cc(O)cc(O)c4-c4cc3ccc4O)C(OC3CC(C)(N)C(O)C(C)O3)c3ccc(c(Cl)c3)Oc3cc2cc(c3OC2OC(CO)C(O)C(O)C2OC2CC(C)(NCc3cccc(Sc4ccc(C(C)(C)C)cc4)c3)C(O)C(C)O2)Oc2ccc(cc2Cl)C1O (stereo not drawn) [Compound 228]	Staphylococcus aureus 447	not met
CN[C@H](CC(C)C)C(=O)N[C@H]1C(=O)N[C@@H](CC(N)=O)C(=O)N[C@H]2C(=O)N[C@H]3C(=O)N[C@H](C(=O)N[C@H](C(=O)O)c4cc(O)cc(O)c4-c4cc3ccc4O)[C@H](O[C@H]3C[C@](C)(N)[C@@H](O)[C@H](C)O3)c3ccc(c(Cl)c3)Oc3cc2cc(c3O[C@@H]2O[C@H](CO)[C@@H](O)[C@H](O)[C@H]2O[C@H]2C[C@](C)(NCc3cccc(-c4ccccc4)c3)[C@@H](O)[C@H](C)O2)Oc2ccc(cc2Cl)[C@H]1O [Compound 91]	Staphylococcus aureus 447	met
CC(C)CC(C(=O)NC1C(=O)NC(CC(N)=O)C(=O)NC2C(=O)NC3C(=O)NC(C(=O)NC(C(=O)O)c4cc(O)cc(O)c4-c4cc3ccc4O)C(OC3CC(C)(N)C(O)C(C)O3)c3ccc(c(Cl)c3)Oc3cc2cc(c3OC2OC(CO)C(O)C(O)C2OC2CC(C)(NCc3ccc(N(C)c4ccccc4)cc3)C(O)C(C)O2)Oc2ccc(cc2Cl)C1O)N(C)Cc1ccc(N(C)c2ccccc2)cc1 (stereo not drawn) [Compound 260]	Staphylococcus aureus 447	not met

* * *

MIC by entry:
# Test system: Staphylococcus aureus S13E
# Type: cell-based

Compound	Target or system	MIC
CC(C)CC(C(=O)NC1C(=O)NC(CC(N)=O)C(=O)NC2C(=O)NC3C(=O)NC(C(=O)NC(C(=O)O)c4cc(O)cc(O)c4-c4cc3ccc4O)C(OC3CC(C)(N)C(O)C(C)O3)c3ccc(c(Cl)c3)Oc3cc2cc(c3OC2OC(CO)C(O)C(O)C2OC2CC(C)(NCc3cccnc3)C(O)C(C)O2)Oc2ccc(cc2Cl)C1O)N(C)Cc1cccnc1 (stereo not drawn)	Staphylococcus aureus S13E	2 µg/mL
CNC(CC(C)C)C(=O)NC1C(=O)NC(CC(N)=O)C(=O)NC2C(=O)NC3C(=O)NC(C(=O)NC(C(=O)O)c4cc(O)cc(O)c4-c4cc3ccc4O)C(OC3CC(C)(N)C(O)C(C)O3)c3ccc(c(Cl)c3)Oc3cc2cc(c3OC2OC(CO)C(O)C(O)C2OC2CC(C)(NCc3ccc(-c4ccc(C#N)cc4)cc3)C(O)C(C)O2)Oc2ccc(cc2Cl)C1O (stereo not drawn)	Staphylococcus aureus S13E	≤ 0.06 µg/mL
CNC(CC(C)C)C(=O)NC1C(=O)NC(CC(N)=O)C(=O)NC2C(=O)NC3C(=O)NC(C(=O)NC(C(=O)O)c4cc(O)cc(O)c4-c4cc3ccc4O)C(OC3CC(C)(N)C(O)C(C)O3)c3ccc(c(Cl)c3)Oc3cc2cc(c3OC2OC(CO)C(O)C(O)C2OC2CC(C)(NCCCCCCCCOc3ccccc3)C(O)C(C)O2)Oc2ccc(cc2Cl)C1O (stereo not drawn)	Staphylococcus aureus S13E	2 µg/mL
